# TEST SYSTEM: T1, SH2 domain of Grb10 (recombinant, on protein microarray) (human, UniProt Q13322 493-574)
# T1 construct: Grb10, human, SH2 domain
# T1 sequence (looked up): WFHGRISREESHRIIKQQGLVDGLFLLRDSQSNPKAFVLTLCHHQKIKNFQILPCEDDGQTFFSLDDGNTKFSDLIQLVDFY
# PROTOCOL: peptide or protein array; recombinant human SH2 and PTB domains spotted on protein microarrays; probed in duplicate with eight concentrations of fluorescently labeled peptide, 10 nM to 5 µM; fluorescence fit to a saturation binding equation
# RECORDED CONDITIONS: both partners purified
Where no end group is shown, it is not given here. [ ]: non-standard residue; d: D form. pY = N[C@@H](Cc1ccc(OP(=O)(O)O)cc1)C(=O)O
OUTCOME MEASURE: Kd

[ask] Consider the binder KYVDSEGHL[pY]TVPIREQG (peptide, UniProt Q03135 5-22, looked up, also: fluorescent label (position not given here), caveolin-1 (Cav1), human, residues 5-22; also called Tyr14-Cav1 phosphopeptide (18 amino acids); source: synthetic peptide, purified to >95% by preparative reverse phase HPLC) [fluorescently labeled Tyr14-Cav1 phosphopeptide (residues 5-22 of Cav1, phosphorylated on Tyr14)] and give its measured Kd.
[reply] < 2 µM

Numbers sourced from paper PMC2927421.
